Examples of compounds with documented pest or weed control at 10 ppm follow.
test system: Phakopsora pachyrhizi; test: In vivo preventive test on Phakopsora (soybeans); design: species or system Phakopsora pachyrhizi (soybean rust) on soybeans; conditions: 168 h, young soybean plants sprayed, 10 ppm of active ingredient, evaluated 7 days after inoculation, 0% = untreated control, 100% = no disease, read-out: efficacy

[
  {
    "compound": "CCN(C)C=Nc1cc(C)c(Cc2ccccc2C#N)cc1Cl [Example 1]",
    "pest or weed control at 10 ppm": "80 to 89%"
  },
  {
    "compound": "Cc1cc(N=CN(C)C(C)C)c(C)cc1Cc1ccc(F)cc1F [Example 12]",
    "pest or weed control at 10 ppm": "90 to 100%"
  },
  {
    "compound": "CCN(C)C=Nc1cc(Cl)c(C(C)c2ccccc2)cc1C (centres unmarked) [Example 18]",
    "pest or weed control at 10 ppm": "90 to 100%"
  },
  {
    "compound": "CCN(C)C=Nc1cc(Cl)c(Cc2ccc(F)cc2F)cc1C [Example 22]",
    "pest or weed control at 10 ppm": "90 to 100%"
  }
]

Now for the compound whose pest or weed control at 10 ppm we want.
Could you share which pest or weed control at 10 ppm value was measured for CCN(C)C=Nc1cc(C)c(Cc2ccccc2F)cc1Cl [Example 2] ?
90 to 100%

----------
Examples of molecules with documented chromatographic logP follow.
assay: Log P measurement by HPLC on reversed phase columns (EEC directive 79/831 Annex V.A8); type: physicochemical; details: reversed phase HPLC column, LC-UV, acidic range, 0.1% formic acid in water and acetonitrile as eluent (linear gradient 10% to 95% acetonitrile); read-out: LogP [a]
Form rule: numeric answer, no unit written next to it.

See these solved cases before continuing.
[
  {
    "molecule": "CCN(C)C=Nc1cc(C)c(C2(c3ccccc3)CC2(F)F)cc1C (stereo not shown)",
    "chromatographic logP": 1.63
  },
  {
    "molecule": "CCN(C)C=Nc1cc(F)c(C(C)c2ccccc2)cc1C (stereo not shown)",
    "chromatographic logP": 1.55
  },
  {
    "molecule": "CCN(C)C=Nc1cc(C)c(Cc2ccccc2C#N)cc1Cl",
    "chromatographic logP": 1.41
  }
]

Now for the molecule whose chromatographic logP we want.
Could you share which chromatographic logP value was measured for CCN(C)C=Nc1cc(F)c(Cc2ccccc2)cc1C ?
2

----------
Examples of molecules with documented chromatographic logP follow.
assay: Log P measurement by HPLC on reversed phase columns (EEC directive 79/831 Annex V.A8); type: physicochemical; conditions: reversed phase HPLC column, LC-UV, acidic range, 0.1% formic acid in water and acetonitrile as eluent (linear gradient 10% to 95% acetonitrile); read-out: LogP [a]

See these solved cases before continuing.
[
  {
    "molecule": "CCN(C)C=Nc1cc(C)c(Cc2ccccc2Cl)cc1C [Example 7]",
    "reported-endpoint": "chromatographic logP",
    "observed-measurement": 1.92
  },
  {
    "molecule": "CCN(C)C=Nc1cc(F)c(Cc2ccccc2F)cc1C [Example 33]",
    "reported-endpoint": "chromatographic logP",
    "observed-measurement": 1.41
  },
  {
    "molecule": "CCN(C)C=Nc1cc(C)c(Cc2ccccc2)cc1C [Example 11]",
    "reported-endpoint": "chromatographic logP",
    "observed-measurement": 1.58
  },
  {
    "molecule": "CCN(C)C=Nc1cc(Cl)c(Cc2cccc(F)c2F)cc1C [Example 24]",
    "reported-endpoint": "chromatographic logP",
    "observed-measurement": 1.63
  },
  {
    "molecule": "C=C(c1ccccc1)c1cc(C)c(N=CN(C)CC)cc1Cl [Example 19]",
    "reported-endpoint": "chromatographic logP",
    "observed-measurement": 1.58
  }
]

Could you share which chromatographic logP value was measured for CCN(C)C=Nc1cc(F)c(Cc2ccccc2OC)cc1C [Example 32] ?
1.46

Queued: CCN(C)C=Nc1cc(Cl)c(Cc2ccccc2-c2ccccc2)cc1C [Example 25]
2.05

----------
assay: Log P measurement by HPLC on reversed phase columns (EEC directive 79/831 Annex V.A8); type: physicochemical; conditions: reversed phase HPLC column, LC-UV, neutral range, 0.001 molar ammonium acetate solution in water and acetonitrile as eluent (linear gradient 10% to 95% acetonitrile); read-out: LogP [b]
reported-endpoint: chromatographic logP
Form rule: numeric answer, no unit written next to it.

See these solved cases before continuing.
[
  {
    "molecule": "CCN(C)C=Nc1cc(Cl)c(Cc2ccccc2C)cc1C",
    "observed-measurement": 5.54
  },
  {
    "molecule": "CCN(C)C=Nc1cc(F)c(Cc2ccc(F)cc2F)cc1C",
    "observed-measurement": 4.54
  },
  {
    "molecule": "CCN(C)C=Nc1cc(C)c(C(C)c2ccccc2)cc1Cl (stereo not shown)",
    "observed-measurement": 4.7
  }
]

Could you share which chromatographic logP value was measured for C=C(c1ccccc1)c1cc(C)c(N=CN(C)CC)cc1Cl ?
5.24

Queued: CCN(C)C=Nc1cc(C)c(Cc2ccccc2F)cc1Cl
4.5

Queued: CCN(C)C=Nc1cc(Cl)c(Cc2ccccc2Cl)cc1C
5.55

Queued: CCN(C)C=Nc1cc(F)c(C(C)c2ccccc2)cc1C (stereo not shown)
4.63

Queued: CCN(C)C=Nc1cc(Cl)c(Cc2ccccc2C#N)cc1C
4.38

Queued: CCN(C)C=Nc1cc(F)c(Cc2ccccc2OC)cc1C
4.34

----------
test: Log P measurement by HPLC on reversed phase columns (EEC directive 79/831 Annex V.A8); assay type: physicochemical; conditions: reversed phase HPLC column, LC-UV, acidic range, 0.1% formic acid in water and acetonitrile as eluent (linear gradient 10% to 95% acetonitrile); read-out: LogP [a]
Examples of compounds with documented chromatographic logP follow.
Form rule: numeric answer, no unit written next to it.

See these solved cases before continuing.
[
  {
    "smiles-structure": "CCN(C)C=Nc1cc(C)c(Cc2ccccc2F)cc1C",
    "chromatographic logP": 1.6
  },
  {
    "smiles-structure": "CCN(C)C=Nc1cc(Cl)c(Cc2ccccc2C#N)cc1C",
    "chromatographic logP": 1.38
  },
  {
    "smiles-structure": "CCN(C)C=Nc1cc(Cl)c(Cc2ccc(F)cc2F)cc1C",
    "chromatographic logP": 1.63
  },
  {
    "smiles-structure": "CCN(C)C=Nc1cc(C)c(Cc2ccccc2OC)cc1Cl",
    "chromatographic logP": 1.53
  },
  {
    "smiles-structure": "CCN(C)C=Nc1cc(Cl)c(Cc2ccccc2C)cc1C",
    "chromatographic logP": 1.66
  }
]

Now for the compound whose chromatographic logP we want.
Could you share which chromatographic logP value was measured for CCN(C)C=Nc1cc(Cl)c(Cc2ccccc2)cc1C ?
1.72

----------
test: Log P measurement by HPLC on reversed phase columns (EEC directive 79/831 Annex V.A8); type: physicochemical; conditions: reversed phase HPLC column, LC-UV, acidic range, 0.1% formic acid in water and acetonitrile as eluent (linear gradient 10% to 95% acetonitrile); read-out: LogP [a]
reported-endpoint: chromatographic logP

See these solved cases before continuing.
[
  {
    "compound": "CCN(C)C=Nc1cc(Cl)c(Cc2ccccc2Cl)cc1C",
    "reported-endpoint": "chromatographic logP",
    "observed-measurement": 1.81
  },
  {
    "compound": "CCN(C)C=Nc1cc(Cl)c(C(C)c2ccccc2)cc1C (stereo not shown)",
    "reported-endpoint": "chromatographic logP",
    "observed-measurement": 1.58
  },
  {
    "compound": "CCN(C)C=Nc1cc(C)c(Cc2ccccc2F)cc1Cl",
    "reported-endpoint": "chromatographic logP",
    "observed-measurement": 1.52
  },
  {
    "compound": "CCN(C)C=Nc1cc(C)c(Cc2ccc(F)cc2F)cc1C",
    "reported-endpoint": "chromatographic logP",
    "observed-measurement": 1.79
  },
  {
    "compound": "CCN(C)C=Nc1cc(C)c(Cc2ccc(F)cc2F)cc1Cl",
    "reported-endpoint": "chromatographic logP",
    "observed-measurement": 1.86
  }
]

Could you share which chromatographic logP value was measured for CCN(C)C=Nc1cc(C)c(C2(c3ccccc3)CC2(Br)Br)cc1C (stereo not shown) ?
1.89

Queued: CCN(C)C=Nc1cc(C)c(Cc2ccccc2C#N)cc1C
1.47

Queued: CCN(C)C=Nc1cc(C)c(Cc2ccccc2)cc1Cl
1.49

Queued: Cc1cc(N=CN(C)C(C)C)c(C)cc1Cc1ccc(F)cc1F
1.92

Queued: CCN(C)C=Nc1cc(F)c(Cc2ccc(F)cc2F)cc1C
1.52
